Target: T1, recombinant mouse PCSK9 (mouse, UniProt Q80W65 35-694)
T1 construct: also called mPCSK9; murine PCSK9
T1 sequence (Q80W65 other isoform, or with tags, fused parts or gaps limits assumed): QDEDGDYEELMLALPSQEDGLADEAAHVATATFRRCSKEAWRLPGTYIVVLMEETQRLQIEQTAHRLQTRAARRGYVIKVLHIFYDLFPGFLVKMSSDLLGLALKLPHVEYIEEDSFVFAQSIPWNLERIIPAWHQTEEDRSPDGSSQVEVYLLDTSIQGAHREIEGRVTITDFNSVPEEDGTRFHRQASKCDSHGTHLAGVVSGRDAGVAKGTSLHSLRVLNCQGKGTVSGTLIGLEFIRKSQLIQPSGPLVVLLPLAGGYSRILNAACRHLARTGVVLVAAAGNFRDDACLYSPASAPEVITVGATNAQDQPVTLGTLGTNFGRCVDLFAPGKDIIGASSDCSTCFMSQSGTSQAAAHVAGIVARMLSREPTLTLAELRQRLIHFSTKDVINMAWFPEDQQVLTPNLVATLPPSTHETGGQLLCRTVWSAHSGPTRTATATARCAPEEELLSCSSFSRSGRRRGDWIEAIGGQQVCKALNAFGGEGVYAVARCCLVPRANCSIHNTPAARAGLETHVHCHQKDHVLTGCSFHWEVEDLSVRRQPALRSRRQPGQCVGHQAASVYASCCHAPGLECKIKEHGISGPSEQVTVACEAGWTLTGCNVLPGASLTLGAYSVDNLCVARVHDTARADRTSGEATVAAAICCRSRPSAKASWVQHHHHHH
Experiment: ELISA, blocking: biotinylated mouse PCSK9 (0.8nM) binding to immobilized human LDLR extracellular domain, pH7.5
recorded-metric: IC50 (read off the curve)

Give me measured IC50 (read off the curve), please, for this binder: anti-PCSK9 antagonist monoclonal antibody 7D4 (antibody, V domains shown, Murine full-length IgG from a hybridoma; also called 7D4.4 (subclone); ATCC PTA-8983) VH: EVKLVESEGGLVQPGSSMKLSCTASGFTFSDYYMAWVRQVPEKGLEWVANINYDGSNTSYLDSLKSRFIISRDNAKNILYLQMSSLKSEDTATYYCAREKFAAMDYWGQGTSVTVSS VL: DIVMTQSHKFMSTSFGDRVSITCKASQDVSNALAWYQQKPGHSPKLLIFSASYRYTGVPDRFTGSGSGTDFTFTISSVQAEDLAVYYCQQHYSTPWTFGGGTKLEIKR
~0.9 nM
